# Target Under Test: Human CatG (Homo sapiens)
# Construct: purchased Elastin Products Company (Owensville, MO, USA)
# Experiment Description: Direct inhibition of CatG, chromogenic substrate (S-7388) hydrolysis assay, IC50 determination
# Type: biochemical
# Measurement Setup: ΔY = YM − YO of dose-response fit; 100 mM NaCl, pH 7.4
Experimental Readout: ΔY (efficacy) (%)

1. Cc1ccc(OCCOc2cc(OS(=O)(=O)O)cc3oc(-c4ccc(OS(=O)(=O)O)cc4)cc(=O)c23)cc1 [NSGM 16] :: 115
2. O=c1c(OS(=O)(=O)O)c(-c2ccc(OS(=O)(=O)O)c(OS(=O)(=O)O)c2)oc2cc(OS(=O)(=O)O)cc(OCc3cccc(COc4cc(OS(=O)(=O)O)cc5oc(-c6ccc(OS(=O)(=O)O)c(OS(=O)(=O)O)c6)c(OS(=O)(=O)O)c(=O)c45)c3)c12 [NSGM 27] :: 77
3. O=c1cc(-c2ccc(OS(=O)(=O)O)cc2)oc2cc(OS(=O)(=O)O)cc(OCc3ccc(-c4ccc(COc5cc(OS(=O)(=O)O)cc6oc(-c7ccc(OS(=O)(=O)O)cc7)cc(=O)c56)cc4)cc3)c12 [NSGM 23] :: 103
4. O=c1cc(-c2ccc(OS(=O)(=O)O)cc2)oc2cc(OS(=O)(=O)O)cc(OCC=CCOc3cc(OS(=O)(=O)O)cc4oc(-c5ccc(OS(=O)(=O)O)cc5)cc(=O)c34)c12 [NSGM 18] :: 81
5. O=c1c(OS(=O)(=O)O)c(-c2ccc(OS(=O)(=O)O)c(OS(=O)(=O)O)c2)oc2cc(OS(=O)(=O)O)cc(OCCCOc3cc(OS(=O)(=O)O)cc4oc(-c5ccc(OS(=O)(=O)O)c(OS(=O)(=O)O)c5)c(OS(=O)(=O)O)c(=O)c34)c12 [NSGM 24] :: 94
6. O=c1c(OS(=O)(=O)O)c(-c2ccc(OS(=O)(=O)O)c(OS(=O)(=O)O)c2)oc2cc(OS(=O)(=O)O)cc(OCc3ccc(COc4cc(OS(=O)(=O)O)cc5oc(-c6ccc(OS(=O)(=O)O)c(OS(=O)(=O)O)c6)c(OS(=O)(=O)O)c(=O)c45)nc3)c12 [NSGM 28] :: 77
7. O=c1cc(-c2ccc(OS(=O)(=O)O)cc2)oc2cc(OS(=O)(=O)O)cc(OCc3cccc(COc4cc(OS(=O)(=O)O)cc5oc(-c6ccc(OS(=O)(=O)O)cc6)cc(=O)c45)c3)c12 [NSGM 21] :: 81
8. O=S(=O)(O)Oc1cc2c(c(OS(=O)(=O)O)c1)CC(OS(=O)(=O)O)C(c1ccc(OS(=O)(=O)O)c(OS(=O)(=O)O)c1)O2 (stereo not drawn) [NSGM 17] :: 76
9. CCOC(=O)c1c(C)oc2cc(OCc3ccccc3)c(OCCCOc3cc(OS(=O)(=O)O)cc4oc(-c5ccc(OS(=O)(=O)O)cc5)cc(=O)c34)cc12 [NSGM 30] :: 87
10. O=c1cc(-c2ccc(OS(=O)(=O)O)cc2)oc2cc(OS(=O)(=O)O)cc(OCc3ccc(COc4cc(OS(=O)(=O)O)cc5oc(-c6ccc(OS(=O)(=O)O)cc6)cc(=O)c45)cc3)c12 [NSGM 19] :: 82
11. O=c1c(OS(=O)(=O)O)c(-c2ccc(OS(=O)(=O)O)c(OS(=O)(=O)O)c2)oc2cc(OS(=O)(=O)O)cc(OCc3ccc(COc4cc(OS(=O)(=O)O)cc5oc(-c6ccc(OS(=O)(=O)O)c(OS(=O)(=O)O)c6)c(OS(=O)(=O)O)c(=O)c45)cc3)c12 [NSGM 25] :: 95
12. O=c1cc(-c2ccc(OS(=O)(=O)O)cc2)oc2cc(OS(=O)(=O)O)cc(OCc3ccc(COc4cc(OS(=O)(=O)O)cc5oc(-c6ccc(OS(=O)(=O)O)cc6)cc(=O)c45)nc3)c12 [NSGM 22] :: 105

---

# Target Under Test: Human CatG (Homo sapiens, UniProt P08311)
# Construct: purchased Elastin Products Company (Owensville, MO, USA)
# Sequence (P08311 21-255): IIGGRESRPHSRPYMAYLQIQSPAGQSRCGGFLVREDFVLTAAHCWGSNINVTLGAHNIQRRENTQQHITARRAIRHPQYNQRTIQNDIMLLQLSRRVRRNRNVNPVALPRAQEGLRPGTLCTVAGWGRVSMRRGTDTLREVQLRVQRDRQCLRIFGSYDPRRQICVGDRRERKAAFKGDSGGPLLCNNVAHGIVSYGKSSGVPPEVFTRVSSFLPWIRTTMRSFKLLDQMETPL
# Experiment Description: Direct inhibition of CatG, chromogenic substrate (S-7388) hydrolysis assay, IC50 determination
# Assay type: biochemical
# Measurement Setup: Hill slope of dose-response fit; 100 mM NaCl, pH 7.4
Experimental Readout: HS (Hill slope)

1) Cc1ccc(OCCOc2cc(OS(=O)(=O)O)cc3oc(-c4ccc(OS(=O)(=O)O)cc4)cc(=O)c23)cc1 :: 1.9

1. O=c1cc(-c2ccc(OS(=O)(=O)O)cc2)oc2cc(OS(=O)(=O)O)cc(OCC=CCOc3cc(OS(=O)(=O)O)cc4oc(-c5ccc(OS(=O)(=O)O)cc5)cc(=O)c34)c12
2. O=c1cc(-c2ccc(OS(=O)(=O)O)cc2)oc2cc(OS(=O)(=O)O)cc(OCc3ccc(COc4cc(OS(=O)(=O)O)cc5oc(-c6ccc(OS(=O)(=O)O)cc6)cc(=O)c45)cc3)c12
Hi there, can you help? I need to know whether 1 or 2 has lower measured HS (Hill slope). Please identify the chosen entry by its label.
1

---

# Target Under Test: Human CatG (Homo sapiens, UniProt P08311)
# Construct: purchased Elastin Products Company (Owensville, MO, USA)
# Experiment Description: Direct inhibition of CatG, chromogenic substrate (S-7388) hydrolysis assay, IC50 determination
# Format: biochemical
# Measurement Setup: pH 7.4 tris buffer, 100 mM NaCl, 37 °C, 60 nM CatG, 750 µM S-7388; ± 1 S.E.; read-out: IC50
Experimental Readout: IC50 (µM)

1) O=c1c(OS(=O)(=O)O)c(-c2ccc(OS(=O)(=O)O)c(OS(=O)(=O)O)c2)oc2cc(OS(=O)(=O)O)cc(OCc3cccc(COc4cc(OS(=O)(=O)O)cc5oc(-c6ccc(OS(=O)(=O)O)c(OS(=O)(=O)O)c6)c(OS(=O)(=O)O)c(=O)c45)c3)c12 :: 0.15

1. O=c1c(OS(=O)(=O)O)c(-c2ccc(OS(=O)(=O)O)c(OS(=O)(=O)O)c2)oc2cc(OS(=O)(=O)O)cc(OCc3ccc(COc4cc(OS(=O)(=O)O)cc5oc(-c6ccc(OS(=O)(=O)O)c(OS(=O)(=O)O)c6)c(OS(=O)(=O)O)c(=O)c45)nc3)c12
2. O=S(=O)(O)Oc1cc2c(c(OS(=O)(=O)O)c1)CC(OS(=O)(=O)O)C(c1ccc(OS(=O)(=O)O)c(OS(=O)(=O)O)c1)O2 (centres unmarked)
Hi there, can you help? I need to know whether 1 or 2 has lower measured IC50. Please identify the chosen entry by its label.
1
(1: 0.18 µM, 2: 65 µM)

src = paper PMC10216581
